test system: Vero E6; assay: drug sensitivity score (DSS) for viability; higher = more toxic; extreme values may be limits of the assay; conditions: 72 h
So I've got a bunch of molecules here, and I need their drug sensitivity score values.
Field format: numeric only.

[Q] Requested read-out: drug sensitivity score. Entry: c1cc2c(cc1C1CCCCC1)c1c3n2CCNC3CCC1 (configuration not stated) [tetrindole]
[A] 6.4

[Q] Item under review: CO/N=C1/C[C@@H](C(=O)NC[C@@H](O)c2ccccc2)N(C(=O)c2ccc(-c3ccccc3C)cc2)C1 [OT-R-antagonist-1] . Reported drug sensitivity score?
[A] 0

[Q] # get_value(readout='drug sensitivity score', item= Nc1nccc2c1ncn2[C@@H]1O[C@H](CO)[C@@H](O)[C@@H]1O [3-deazaadenosine] )
[A] 0

[Q] Request the reported drug sensitivity score associated with COCCNC(=O)COc1ccc(OCCNC[C@H](O)COc2ccccc2)cc1 [ZD-7114]
[A] 0

[Q] What does the record list as drug sensitivity score for O=c1cc(-c2ccccc2)oc2cc(O)cc(O)c12 [chrysin] ?
[A] 0

[Q] Return reported drug sensitivity score; argument: Fc1ccc(C(OCCN2CCN(CCCc3ccccc3)CC2)c2ccc(F)cc2)cc1 [vanoxerine]
[A] 3.9

[Q] Bench note: what drug sensitivity score did CNC(=N)NC(=O)Nc1c(C)cccc1C [lidamidine] show?
[A] 0

[Q] Data request, read-out drug sensitivity score, for Cn1cncc1[C@@](N)(c1ccc(Cl)cc1)c1ccc2c(c1)c(-c1cccc(Cl)c1)cc(=O)n2C [tipifarnib]
[A] 2.5

[Q] Query (molecule): Cc1ccc(C(=O)Nc2ccc(Oc3cc4cnn(C)c4cc3-c3cn[nH]c3)c(F)c2)c(=O)n1-c1ccc(F)cc1 ; field requested: drug sensitivity score
[A] 2.6

[Q] Query (molecule): Cc1ncc(OC[C@@]2(c3cccc(F)c3)C[C@H]2C(=O)Nc2ccc(F)cn2)c(C)n1 [lemborexant] ; field requested: drug sensitivity score
[A] 0

[Q] Sample CCC(=O)N[C@@H]1Cc2ccccc2[C@H](c2ccccc2)C1 [4-P-PDOT] — what was its drug sensitivity score?
[A] 0

[Q] Sample C[C@@]12CCc3occc3[C@H]1CC[C@@]13C[C@@H](CC[C@H]12)[C@@](O)(CO)C3 [cafestol] — what was its drug sensitivity score?
[A] 0

[Q] Give its drug sensitivity score value. Item: NS(=O)(=O)c1cc2c(cc1Cl)NC(C(Cl)Cl)NS2(=O)=O (configuration not stated) [trichlormethiazide]
[A] 0

[Q] Form field: reported drug sensitivity score of Cc1ccc(NC(=O)CCCCCC(=O)Nc2ccccc2N)cc1 [TC-H-106]
[A] 0.6

[Q] Recorded drug sensitivity score of N=C(N)NCCCC[C@@H]1NC(=O)CCSSC[C@@H](C(N)=O)NC(=O)[C@@H]2CCCN2C(=O)[C@H](Cc2c[nH]c3ccccc23)NC(=O)[C@H](CC(=O)O)NC(=O)CNC1=O [eptifibatide] , please.
[A] 0.9

[Q] Quick one: drug sensitivity score for C/C(=C(\CCOP(=O)(O)O)SC(=O)c1ccccc1)N(C=O)Cc1cnc(C)nc1N [benfotiamine] ?
[A] 0

[Q] // returns reported drug sensitivity score for input C[C@]12CC[C@H]3[C@@H](CCC4=CC(=O)CC[C@@H]43)[C@@H]1CC[C@@H]2O [Nandrolone]
[A] 0

====

test system: U2OS; assay: cell viability relative to DMSO; higher = less toxic; details: 72 h; 100 nM
For each of the compounds below, state its cell viability.
The answer should read as a number with its unit following.

[Q] Recorded cell viability of C[C@]12CC[C@H]3[C@@H](CCC4=CC(=O)CC[C@@H]43)[C@@H]1CC[C@@H]2O , please.
[A] 98.5%

[Q] I have this compound here, COc1cc(OC)c2c(=O)[nH]c(-c3cc(C)c(OCCO)c(C)c3)nc2c1 , and I need its recorded cell viability.
[A] 104%

[Q] So what's the measured cell viability for this one? CCOc1ccc2nc3cc(N)ccc3c(N)c2c1 [ethacridine-lactate-monohydrate]
[A] 104%

[Q] Item under review: O=c1[nH]cc(F)c(=O)[nH]1 . Reported cell viability?
[A] 97.6%

[Q] # get_value(readout='cell viability', item= CC1(C)S[C@@H]2[C@H](NC(=O)[C@H](C(=O)O)c3ccsc3)C(=O)N2[C@H]1C(=O)O )
[A] 98.6%

[Q] # lookup: cell viability of N=C(Nc1ccc(I)cc1)NC1C2CC3CC(C2)CC1C3 (stereo not drawn)
[A] 105%

[Q] For the compound CC(C)(C)[C@]1(O)CCN2C[C@H]3c4ccccc4CCc4cccc(c43)[C@@H]2C1 , what cell viability is on record?
[A] 92%

[Q] What value of cell viability has been recorded for this entry: CCOCc1nc2c(N)nc3ccccc3c2n1CC(C)(C)O
[A] 101%

[Q] Look at this compound and give its reported cell viability. CN(C)c1cc(CNCC(C)(C)C)c(O)c2c1C[C@H]1C[C@H]3[C@H](N(C)C)C(O)=C(C(N)=O)C(=O)[C@@]3(O)C(O)=C1C2=O
[A] 99.9%

[Q] Please report the recorded cell viability for O=C(NCCN1CCC2(CC1)C(=O)NCN2c1cccc(F)c1)c1ccc2ccccc2c1 .
[A] 97.7%

[Q] Record request: cell viability value, item O=C(Nc1cccc(Nc2ncc(Br)c(NCCc3cnc[nH]3)n2)c1)N1CCCC1
[A] 97.5%

[Q] Entry Nc1cccc(-c2cc3c(Oc4cccc(O)c4)ncnc3[nH]2)c1 : reported cell viability = ?
[A] 102%

[Q] What value of cell viability has been recorded for this entry: O=C(O)CC/C=C\C[C@@H]1CO[C@H](c2ccccc2Cl)O[C@@H]1c1ccccc1O (racemic)
[A] 97.4%

[Q] Value lookup for cell viability; key = CCOC(=O)C1=CCCC[C@H]1S(=O)(=O)Nc1ccc(F)cc1Cl
[A] 96.9%

[Q] Which cell viability reading was recorded for the compound C[N+](C)(CCOc1ccccc1)Cc1ccccc1 [bephenium-hydroxynaphthoate] ?
[A] 93.5%

[Q] Requested field: cell viability. Item: C[C@@H](N)Cc1c[nH]c2ccc(O)cc12
[A] 99.8%

[Q] Given the compound Cc1cc(C)c(S(=O)(=O)Nc2ccccc2C(F)(F)F)c(C)c1 , what is its reported cell viability?
[A] 97.8%

[Q] Find the recorded cell viability belonging to O=C1c2cccc(O)c2C(=O)c2c(O)cccc21 and report it.
[A] 97.7%

Each recorded value in this set is attributed to the supplement of paper PMC13380429.
